test system: SNB-19 CNS; assay: NCI-60 one-dose screen, 48 h (100 = growth as untreated, 0 = no growth, -100 = all killed); conditions: 10 µM unless noted
The panel holds about 83,000 compounds, 20% with a hit somewhere; the sample as a whole holds those more often.
Measurement name: growth (%)
Enter your answer as a number in %; do not include the unit.

# example entries with known answers
[
  {
    "Compound": "N#CC1c2ccccc2C=CN1C(=O)N(c1ccccc1)c1ccccc1 (stereo not given)",
    "Unit info": "%",
    "growth": 98.5
  },
  {
    "Compound": "O=Cc1ccccc1C(=O)O",
    "Unit info": "%",
    "growth": 107
  },
  {
    "Compound": "CCOc1cc(/C=C/C(=O)C(C(=O)/C=C/c2ccc(OC(=O)CNc3nnc(C)s3)c(OCC)c2)C(=O)CNc2nnc(C)s2)ccc1OC(=O)CNc1nnc(C)s1",
    "Unit info": "%",
    "growth": 32.4
  },
  {
    "Compound": "CCC(=O)Nc1cc2c(cc1Cl)-c1ccccc1C2",
    "Unit info": "%",
    "growth": 101
  },
  {
    "Compound": "Nc1ccc(N=Nc2ccccc2)cc1[N+](=O)[O-]",
    "Unit info": "%",
    "growth": 95.3
  }
]

Prompt: What measured growth is associated with "CCN(CC)c1ccc(C(=C2C=CC(=[N+](CC)Cc3cccc(S(=O)(=O)O)c3)C=C2)c2ccc(N(CC)Cc3cccc(S(=O)(=O)O)c3)cc2)cc1" on SNB-19 CNS?
Completion: 56.9

Prompt: Form field - read-out: growth; system: SNB-19 CNS; submitted item: "CCOC(=O)c1sc(NC(=O)COc2cccc(/C=C3\CCc4cc(OC)ccc4C3=O)c2)nc1C"
Completion: 58.4

Prompt: Could you share what growth was measured for Fc1ccccc1C1c2ccccc2-c2nccn21 (stereo not given) , tested on SNB-19 CNS?
Completion: 100

Prompt: Entry "NC(=O)c1cc(Br)cc(Br)c1NS(=O)(=O)c1ccccc1" , system SNB-19 CNS: what growth was measured?
Completion: 105

Prompt: Request - read-out growth | tested on SNB-19 CNS | compound "O=C1NC(=O)/C(=C/c2ccc(Cl)cc2Cl)N1"
Completion: 107

----------
system: T-47D breast; experiment: NCI-60 one-dose screen, 48 h; settings: 10 µM unless noted
This is part of a sample that, as a whole, favours compounds with a hit. Of some 83,000 tested, about 20% had one in any assay. Calls of active or inactive are those of the source. The calls were made as follows: active = growth percent below 10; inactive = the rest.
Parameter call: string, one of active, inactive

Example entries and their recorded answers appear below.
[
  {
    "Molecule": "c1ccc2nc(Cn3c[n+](Cc4ccc5ccccc5n4)c4ccccc43)ccc2c1",
    "Category": "inactive"
  },
  {
    "Molecule": "CCN(CC)c1ccc(/C=C/C(=O)c2cccc(NS(C)(=O)=O)c2)cc1",
    "Category": "inactive"
  },
  {
    "Molecule": "CCSc1nc(-c2ccc(F)cc2)c(C#N)c(=O)[nH]1",
    "Category": "inactive"
  },
  {
    "Molecule": "C1=C(Cc2ccccc2)n2cnc3ncnc(c32)S1",
    "Category": "inactive"
  },
  {
    "Molecule": "CSc1nc2nc3c(nc2c(=O)n1C)C(=O)c1ccccc1C3=O",
    "Category": "active"
  }
]

Prompt: Record request — test call for CN(C)c1ncnc2c1ncn2C1CCCCO1 (stereo unspecified)
Completion: inactive

Prompt: Answer briefly: the call reported for "O=C1NCCc2c1noc2-c1ccccc1" in this assay.
Completion: inactive

Prompt: Would you mind telling me which call this test gave "CN(C)c1ccc(-c2nc3ncc(Br)cc3o2)cc1" ?
Completion: inactive
